Catalogue of IC50 readings, one per entry.
biological target: truncated human beta-secretase, BACE1 (amino acids 1-454) (Homo sapiens (Human), UniProt P56817); assay: BACE1 Assay (Assay 1), fluorescence quench assay; type: biochemical; conditions: pH 4.4
Sequence (P56817 22-454): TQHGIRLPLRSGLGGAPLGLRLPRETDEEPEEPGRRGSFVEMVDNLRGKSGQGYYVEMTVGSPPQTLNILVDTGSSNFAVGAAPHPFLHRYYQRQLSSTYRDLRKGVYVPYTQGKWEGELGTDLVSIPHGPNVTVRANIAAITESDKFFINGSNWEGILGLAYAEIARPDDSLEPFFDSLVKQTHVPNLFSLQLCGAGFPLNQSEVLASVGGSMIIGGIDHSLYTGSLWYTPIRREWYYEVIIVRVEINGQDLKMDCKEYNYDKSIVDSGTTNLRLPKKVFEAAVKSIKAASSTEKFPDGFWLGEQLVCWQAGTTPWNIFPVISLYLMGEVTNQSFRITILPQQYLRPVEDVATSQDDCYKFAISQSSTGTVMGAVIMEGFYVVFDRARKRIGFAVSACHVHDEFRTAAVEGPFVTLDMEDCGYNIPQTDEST
Please state the value followed by its unit.

Here is how some molecules turned out for IC50.
- MOLECULE: "COCCCOc1ccc2c(c1)C1(N=C(N)N(CC(F)F)C1=O)[C@]1(CC[C@H](OC)CC1)C2 (stereo partly shown) [reference compound]"
  IC50: "7.3 nM"
- MOLECULE: "CC[C@@H]1C[C@@]2(Cc3ccc(C#N)cc3[C@]23N=C(N)N(C[C@H]2COCCO2)C3=O)C[C@H](C)[C@H]1O"
  IC50: "1.9 nM"
- MOLECULE: "COC1CCC2(CC1)Cc1ccc(C#CC3CC3)cc1C21N=C(N)N(Cc2cncnc2)C1=O (stereo not shown) [reference compound]"
  IC50: "1.1 nM"

Proceed to the following item.
Entry CC[C@@H]1C[C@@]2(Cc3ccc(C#N)cc3[C@]23N=C(N)N(CC(C)(C)F)C3=O)C[C@H](C)[C@H]1O — recorded IC50 = 3.4 nM
